# experimentNotes: soluble on expression in E. coli; label from the status in PepcDB or PDB records
reportedEndpoint: soluble on expression in E. coli

# biosequence, soluble on expression in E. coli
data = [
    ("MGSDKIHHHHHHMTRADYLNQLEQALFQLHPSARQEALDYFNEYFDEKDNDEEAIIELGTPDEAAKEIIANLPEDALIPEKDQASPHSSKPFDFNFDFDFQFDWENFFNNFKHSAYQARERIKLTSKIEELPEFSNLQISLEDQALSVQSYEGEAVLLHNPVSEDGSYQAFDYQLVQDSLYISSKPTPNHLYFSNNQISSAILKIPKKLLPLTNLNLKTADSSLTIVDVQVCEQMVVNAKDSSISMTKVSCPSSALQLEDSTLTISDGQMSELKLEASDAVITLSSMSLSDARITLEDCVWKLKDFVLEKSLNCQAEDSVLTYKPSTDISLDIWEEDSSLKLPKDKAFTMMKEGDITHLSYKQENSPAQLVIHCQDCQLSVG", "not soluble"),
    ("MDTSKIVGEKIKALREDKSISIEELAQRSGLAIEQIERIENNIDIPSLAPLIKIARVLGVRLGTFLDDQDEIGPVVCRKKEAKDAISFSNNAIHSRKHMEYHSLSKSKADRHMEPFIIDVMPTEDSDFVLSSHEGEEFIMVMEGVMEISYGKNTYLLEEGDSIYYDSIVPHHVHAYEGQAAKILAVVYTPI", "not soluble"),
    ("LASIFVDVSSVEPGVQLTVKFLGKPIFIRRRTEADIELGRSVQLGQLVDTNARNANIDAGAEATDQNRTLDEAGEWLVMWGVCTHLGCVPIGGVSGDFGGWFCPCHGTHYDSAGRIRKGPAPENLPIPLAKFIDETTIQLG", "soluble"),
    ("MTAANLTEQQRLELEAAAFRTLVHHLQTRKDVQNIDLMNLAGFCRNCLSKWYKAAADDLGVEVSNDQAREEIYGMPYAEWKAKYQKEASPEQQAAFAKSQGNA", "not soluble"),
    ("MRESPYRILEEALRPHLGARAQVVLEEGLKRLGKRPEELSEKDAETLLKGLIFRELQARLPAAQARRAVEEALARLAPAPEGGLEALERGLARFGLYVDWPEVGRLRALVNRLRREPDPRLLQEGLALLDHLEEKLEEALLRQAQDLAHLEEALERVRPLGGPKVRRLESLIQIVREAHREGTLAQGEVERARGPGPEAPQVPGLQSRPARHPPRDGL", "soluble"),
]

Request: Could you share which soluble on expression in E. coli value was measured for `MFFTDESGIHHDPSKVRRLGLYNVPVDYPSRKLNVLASIPLFDGVPCFMFTYSNVNSEIFAEFLRLFRNSGPIVLILDNAKFHKNAYVFSVASQLGITLLFLPPYSPDLNPIELVWKDLKRWVNTYYNLEYTLDSMEEEFYYLFLRECSQTVMKFKKRL` ?
Response: soluble

Request: For `MGHHHHHHGSDSEVNQEAKPEVKPEVKPETHINLKVSDGSSEIFFKIKKTTPLRRLMEAFAKRQGKEMDSLRFLYDGIRIQADQAPEDLDMEDNDIIEAHREQIGGDSEVNQEAKPEVKPEVKPETHINLKVSDGSSEIFFKIKKTTPLRRLMEAFAKRQGKEMDSLRFLYDGIRIQADQAPEDLDMEDNDIIEAHREQIGGMFMAKITGSVVSTKKEDSLTGKKLMIVQPIDANGEHVRSEEVACDSVGAGIGEYVLVARGNAARSVFAEPNSAIDSAIIAIVDSFDK` , what is its reported soluble on expression in E. coli?
Response: soluble

Request: Which soluble on expression in E. coli is listed for `MHHHHHHSSGVDLGTENLYFQSNAMKNIEKLEQSLTYEFKDKNLLIHALTHKSFKKSYNNERLEFLGDAVLDLVVGEYLFHKFAKDAEGDLSKLRAALVNEKSFAKIANSLNLGDFILMSVAEENNGGKEKPSILSDALEAIIGAIHLEAGFEFAKTIALRLIEKNFPQIDAKILIKDYKTKLQEITQGKIGQTPQYETVRAFGPDHLKQFEIALMLDGKELARAIAGSKKEAQQMAAKIALEKLGAL` ?
Response: soluble

Request: GET /values?readout=soluble on expression in E. coli&item= `GLIDSHVHPVVGDYTPRQQQLHWIDSTLHGGVTTLISAGEVHMPGRPKDIVGLKAMAIAAQRWYENFRPSGVKVMAGAPVIEHGMVEQDFKELADAGVKLLGEVGLGTVKDGKTARQMVDWARKYGIQSTIHTGGPSIPGSGLIDADMVLETGTDVIGHINGGHSALPDDQIMCLCESCTAGLEIVHNGNERAALLTLNTARELKQMDRIILGTDGPAGSGVQPLGILRMVAMLSALGNVPAEIAFCFANGNTARQRELDTGLLERGYAADFVLMDQAQHAPGKTILESVQLGNLPGVGMTVIDGVVCSERSRNTPPATRLPRIVS`
Response: not soluble

Request: Can you look up the measured soluble on expression in E. coli of `MQNIFDPLIIRGKSLIPIVQGGMGVGVSASGLSSAVARENGIGTIASVDLRHLHEDLLAESQINPSEEKYTSLNCTALDREIQKAKSASEGKGLIAVNVMKAVKDHAAYVRQACESGADAVVMGAGLPLDLPEMTEGYHKDVALLPILSESRGINIVLKRWMKKGILPDAIVVEHPAHAAGHLGASTVEGVNDAKFDFKRVIEETFEVFKNLGLEGEKIPLILAGGMANFEKVKTALKNWGASAVQIGTAFAVTEEGDAHLNFKKTLASAETEKVVEFMSVAGLPARGIRTKFLDSYIRREGKLQANAKADPRRCTQGLNCLTSCGLRDGLSKAGQFCIDIQLAAAFRGEVDKGLFFRGKDQLPFGNAIRTVRETIQYLLTGSEPVATLGR` for me?
Response: not soluble

Request: # query: soluble on expression in E. coli of entry `GSMENTDVFLGLHDFLERMRKPSAGDFVKSIKSFIVSFSNNAPDPEKDCAMVQEFFSKMEAAFRAHPLWSGCSEEELDSAGDGLEKYVMTKLFTRVFASNTEEVIADEKLFQKMSLVQQFISPENLDIQPTFQNESSWLLAQKELQKINMYKAPRDKLVCILNCCKVINNLLLNASIASNENAPGADEFLPVLIYVTIKANPPQLHSNLLYIQRYRRESKLVGEAAYFFTNILSAESFISNIDAKSISLDEAEFEKNMESARARISG`
Response: soluble

Request: Requested field: soluble on expression in E. coli. Item: `KETCSTGLYTHSGECCKACNLGEGVAQPCGANQTVCEPCLDSVTFSDVVSATEPCKPCTECLGLQSMSAPCVEADDAVCRCAYGYYQDEETGHCEACSVCEVGSGLVFSCQDKQNTVCEECPEGTYSDEANHVDPCLPCTVCEDTERQLRECTPWADAECEHHHHHH`
Response: soluble

* * *

# experimentNotes: soluble on expression in E. coli; label from the status in PepcDB or PDB records
reportedEndpoint: soluble on expression in E. coli

# biosequence, reportedEndpoint, testResult
records = [
    ("MGGVFSSASSNQAQITGILQELERTRLEREIALAHLQERRRIAFKIAEEREKFNWIACGGSLVVVLSALSSFHHKNLLHVIPIFPMASFIGYKAHFCYGDQLKKISETSTQLLEESVDALVPLPPTIADVRSRSKQIKEEESSNY", "soluble on expression in E. coli", "not soluble"),
    ("MGSDKIHHHHHHMKALIEVHNLWKEYNGKEKVTALKGINLRINTGEFVVILGPSGSGKTTLLNCLSGVDRPTRGTVIIHGTDLYTLSEEERTRFRAENMGFVFQFFNLVPVLTAIENVELPLLILGVNRKEARERAFEILRKVGLAHKCDRFPEELSGGEKQRVAIARAIVHNPKVIWADEPTGALDNETGRMIIDLLMEMKENSTLVVVTHDERIAEKADRVIRIRDGQIEQDICEKAL", "soluble on expression in E. coli", "not soluble"),
]

* * *

# experimentNotes: soluble on expression in E. coli; label from the status in PepcDB or PDB records
reportedEndpoint: soluble on expression in E. coli

# biosequence, testResult
data = [
    ("MGSDKIHHHHHHMDKPFRRILLIKMRFHGDMLLTTPVISSLKKNYPDAKIDVLLYQDTIPILSENPEINALYGIKNKKAKASEKIANFFHLIKVLRANKYDLIVNLTDQWMVAILVRLLNARVKISQDYHHRQSAFWRKSFTHLVPLQGGNVVESNLSVLTPLGLDSLVKQTTMSYPPASWKRMRRELDHAGVGQNYVVIQPTARQIFKCWDNAKFSAVIDALHARGYEVVLTSGPDKDDLACVNEIAQGCQTPPVTALAGKVTFPELGALIDHAQLFIGVDSAPAHIAAAVNTPLISLFGATDHIFWRPWSNNMIQFWAGDYREMPTRDQRDRNEMYLSVIPAADVIAAVDKLLPSSTTGTSL", "not soluble"),
    ("GPGSMSSERYVDGDLGEPFNSAEPLTLPVVVQLLRGRRDTSLDHPASRLIEKTCRQVELMQETCADECRVQRVMETRLRLVNKNNRQQMNAHLGNFVVGEDGFATLPPESDDFLDTAEEEAMKMFEVVALGTLQPKTADEARELIPSLGRFEPADLNKVLEMLDSL", "not soluble"),
    ("MSSPSFPRVLIFDSGVGGLSVYREIEARLPQLNYIYLFDNAAYPYGELTQETLIARVDTLVTRMVEQERIDLVVIACNTASTIVLPVLRAKLTIPVVGVVPAIKPASLIASKAIGLIATPATVKRQYTQELIRDFSANKNVELLGSTRLVNMAEEKLRGKPLDLEELASILQPLKNTIDVAVLGCTHFPLIKEEIQQVLGEQVQLIDSGLAIARRVQELLGIEQAVGAKQKHRIYASAPPWEESALNIKLEQLGFNPVQPFLHPI", "not soluble"),
]
